Molecular target: Tyrosine-protein kinase receptor UFO (Homo sapiens, UniProt P30530)
Sequence (P30530 whole entry): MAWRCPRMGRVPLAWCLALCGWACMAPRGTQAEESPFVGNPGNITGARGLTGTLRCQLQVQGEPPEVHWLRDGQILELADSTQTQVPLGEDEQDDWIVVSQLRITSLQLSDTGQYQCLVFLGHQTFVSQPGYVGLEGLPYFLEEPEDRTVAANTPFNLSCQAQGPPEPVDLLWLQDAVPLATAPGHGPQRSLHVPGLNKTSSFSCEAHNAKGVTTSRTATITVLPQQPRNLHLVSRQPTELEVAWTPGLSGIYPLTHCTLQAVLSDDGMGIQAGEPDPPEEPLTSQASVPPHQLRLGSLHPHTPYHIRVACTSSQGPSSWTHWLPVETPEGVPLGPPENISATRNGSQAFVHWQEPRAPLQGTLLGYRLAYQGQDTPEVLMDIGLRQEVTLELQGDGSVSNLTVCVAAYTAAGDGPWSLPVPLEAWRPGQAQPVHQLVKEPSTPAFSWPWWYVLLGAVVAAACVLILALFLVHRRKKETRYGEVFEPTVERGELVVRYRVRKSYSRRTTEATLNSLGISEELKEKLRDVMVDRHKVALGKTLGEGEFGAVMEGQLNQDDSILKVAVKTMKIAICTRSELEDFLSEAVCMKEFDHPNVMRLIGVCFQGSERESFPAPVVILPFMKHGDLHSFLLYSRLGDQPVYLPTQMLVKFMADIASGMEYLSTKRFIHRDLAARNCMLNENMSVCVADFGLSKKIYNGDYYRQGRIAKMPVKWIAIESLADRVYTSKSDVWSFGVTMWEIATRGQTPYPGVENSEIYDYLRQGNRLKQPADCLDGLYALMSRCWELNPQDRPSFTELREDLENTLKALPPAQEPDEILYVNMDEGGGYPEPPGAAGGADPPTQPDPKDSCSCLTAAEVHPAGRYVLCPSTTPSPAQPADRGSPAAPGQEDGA
Assay: Inhibition of AXL (unknown origin)
PARAMETER MEASURED: IC50 (nM)
Field: numeric (nM). Do not append units.

Prompt: Sample Cc1c[nH]c2nc(Nc3ccc(N4CCN(C)CC4)c(F)c3)nc(-c3cccc(CC#N)c3)c12 — what was its IC50?
Completion: 58

###

Target: Tyrosine-protein kinase ABL1 (Homo sapiens)
Sequence (P00519 whole entry): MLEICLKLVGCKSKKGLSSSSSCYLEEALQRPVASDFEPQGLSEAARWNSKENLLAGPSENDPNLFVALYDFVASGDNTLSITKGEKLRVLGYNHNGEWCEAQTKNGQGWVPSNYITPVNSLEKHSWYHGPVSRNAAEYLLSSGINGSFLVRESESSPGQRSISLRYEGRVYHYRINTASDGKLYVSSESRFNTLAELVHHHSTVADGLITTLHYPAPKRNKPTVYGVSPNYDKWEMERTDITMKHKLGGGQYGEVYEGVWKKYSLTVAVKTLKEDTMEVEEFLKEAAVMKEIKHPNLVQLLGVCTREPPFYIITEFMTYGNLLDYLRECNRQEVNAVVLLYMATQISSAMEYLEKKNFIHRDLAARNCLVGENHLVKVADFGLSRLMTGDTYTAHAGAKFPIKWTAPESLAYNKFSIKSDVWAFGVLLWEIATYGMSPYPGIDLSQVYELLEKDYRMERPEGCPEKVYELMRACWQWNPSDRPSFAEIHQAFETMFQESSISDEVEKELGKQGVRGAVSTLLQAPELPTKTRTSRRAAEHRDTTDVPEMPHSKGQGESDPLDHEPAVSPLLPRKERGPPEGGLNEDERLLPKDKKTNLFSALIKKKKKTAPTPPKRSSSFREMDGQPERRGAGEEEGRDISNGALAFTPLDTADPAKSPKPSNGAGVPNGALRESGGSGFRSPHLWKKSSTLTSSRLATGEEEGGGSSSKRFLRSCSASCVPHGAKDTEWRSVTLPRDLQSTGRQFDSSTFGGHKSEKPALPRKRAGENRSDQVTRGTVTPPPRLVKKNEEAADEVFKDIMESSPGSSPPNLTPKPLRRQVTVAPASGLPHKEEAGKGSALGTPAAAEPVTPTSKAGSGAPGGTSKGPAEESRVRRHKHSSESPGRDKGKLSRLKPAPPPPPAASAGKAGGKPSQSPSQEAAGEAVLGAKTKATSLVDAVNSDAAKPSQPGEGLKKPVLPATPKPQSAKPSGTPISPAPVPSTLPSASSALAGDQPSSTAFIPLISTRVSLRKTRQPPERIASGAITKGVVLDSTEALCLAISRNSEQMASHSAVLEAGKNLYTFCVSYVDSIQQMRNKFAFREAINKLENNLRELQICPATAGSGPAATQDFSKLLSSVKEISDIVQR
Test: Inhibition of human recombinant ABL by fluorescence polarization assay
pIC50: −log10 of the molar value.
PARAMETER MEASURED: pIC50

Prompt: Dear colleague, I am looking for the recorded pIC50 of the following compound: Nc1nc(Nc2ccc3c(c2)CC[C@@H](N2CCCC2)CC3)nn1-c1cc2c(nn1)-c1ccccc1CCC2 [BEMCENTINIB]
Completion: < 6.15
